# system under test: UniProt P0DTD1
pKi: −log10 of the molar value.
Assign y whenever pKi does not fall below 5; assign n whenever it does.

CC(C)(C)[C@H](NC(=O)c1cccs1)C(=O)N[C@@H](Cc1ccccc1)C(=O)NN(Cc1cccc(Cl)c1)C(=O)C(F)Cl (mixture of isomers) [Compound 14] = y
CC(C)(C)[C@H](NC(=O)c1cccs1)C(=O)N[C@@H](Cc1ccccc1)C(=O)NN(Cc1cccc(Cl)c1)C(=O)CCl [Compound 12] = y
CN(NC(=O)[C@H](Cc1ccccc1)NC(=O)OCc1ccccc1)C(=O)C(Cl)Cl [Compound 7] = y

Please look at the following compound next.
# check: pKi of CN(NC(=O)[C@H](Cc1ccccc1)NC(=O)OCc1ccccc1)C(=O)CCl [Compound 6] is greater than or equal to 5
n

The reported numbers originate from paper PMC12723578.
